The measured values listed here are drawn from patent US11926619B2.

# Test system: Panc 05.04 cells (pancreatic cancer cells; Q699H and K700E mutations in SF3B1)
# experimental-details: Cell viability assay (CellTiter-Glo, 72 hr), Panc 05.04 cells
# Format: cell-based
# condition-set: Panc 05.04 cells (mutant SF3B1); read-out: Panc 05.04 (mt SF3B1 cells), GI50
Response field label takes satisfied when GI50 is strictly below 5 nM and not satisfied in all other cases.

{"compound": "C/C(=C\\C=C\\[C@@H](C)COC(=O)N1CC[C@@H](O)C1)[C@H]1OC(=O)CCCCC[C@@H](OC(=O)N2CCN(C)CC2)/C=C/[C@@H]1C", "assigned-class": "not satisfied"}
{"compound": "C/C(=C\\C=C\\[C@@H](C)COC(=O)N1CC[C@H](F)C1)[C@H]1OC(=O)C[C@H](O)CC[C@@](C)(O)[C@@H](OC(=O)N2CCN(C3CCCCCC3)CC2)/C=C/[C@@H]1C", "assigned-class": "satisfied"}
{"compound": "C/C(=C\\C=C\\C(C)(C)COC(=O)N1CCCC1)[C@H]1OC(=O)C[C@H](O)CC[C@@](C)(O)[C@@H](OC(=O)N2CCN(C3CCCCCC3)CC2)/C=C/[C@@H]1C", "assigned-class": "satisfied"}
{"compound": "COC[C@H]1CCCN1C(=O)OC[C@H](C)/C=C/C=C(\\C)[C@H]1OC(=O)C[C@H](O)CC[C@@](C)(O)[C@@H](OC(C)=O)/C=C/[C@@H]1C", "assigned-class": "not satisfied"}
{"compound": "CCOc1cccc(CCC(C)/C=C/C=C(\\C)[C@H]2OC(=O)C[C@H](O)CC[C@@](C)(O)[C@@H](OC(C)=O)/C=C/[C@@H]2C)c1 (stereo partly drawn)", "assigned-class": "not satisfied"}

====

# System: Panc 05.04 cells (pancreatic cancer cells; Q699H and K700E mutations in SF3B1)
# experimental-details: Cell viability assay (CellTiter-Glo, 72 hr), Panc 05.04 cells
# Assay type: cell-based
# condition-set: Panc 05.04 cells (mutant SF3B1); maximum achievable response in tested dose range, negative value = cellular lethality; read-out: Panc 05.04 (mt SF3B1 cells) Emax (%)
Label 1 when Emax is at or above -80%; otherwise label -1.

{"compound": "CC(=O)O[C@H]1/C=C/[C@H](C)[C@@H](/C(C)=C/C=C/C(C)(O)CCc2ccccc2)OC(=O)C[C@H](O)CC[C@@]1(C)O (stereo partly drawn)", "tested-target": "Panc 05.04 cells (pancreatic cancer cells; Q699H and K700E mutations in SF3B1)", "assigned-class": 1}
{"compound": "C/C(=C\\C=C\\C(C)c1ccnc(N(C)C)n1)[C@H]1OC(=O)C[C@H](O)CC[C@@](C)(O)[C@@H](OC(=O)N2CCN(C3CCCCCC3)CC2)/C=C/[C@@H]1C (stereo partly drawn)", "tested-target": "Panc 05.04 cells (pancreatic cancer cells; Q699H and K700E mutations in SF3B1)", "assigned-class": -1}
{"compound": "C/C(=C\\C=C\\[C@@H](C)COC(=O)N1CC[C@@H](O)C1)[C@H]1NC(=O)CCCCC[C@@H](OC(=O)N2CCN(C)CC2)/C=C/[C@@H]1C", "tested-target": "Panc 05.04 cells (pancreatic cancer cells; Q699H and K700E mutations in SF3B1)", "assigned-class": 1}
{"compound": "C/C(=C\\C=C\\[C@@H](C)COC(=O)N1CC[C@@H](O)C1)[C@H]1OC(=O)CCCCC[C@@H](OC(=O)N(C)C)/C=C/[C@@H]1C", "tested-target": "Panc 05.04 cells (pancreatic cancer cells; Q699H and K700E mutations in SF3B1)", "assigned-class": -1}
{"compound": "CC(=O)O[C@H]1/C=C/[C@H](C)[C@@H](/C(C)=C/C=C/[C@@H](C)c2ccccn2)OC(=O)C[C@H](O)CC[C@@H]1C", "tested-target": "Panc 05.04 cells (pancreatic cancer cells; Q699H and K700E mutations in SF3B1)", "assigned-class": 1}
{"compound": "C/C(=C\\C=C\\C(C)c1ncccn1)[C@H]1OC(=O)CCCCC[C@@H](OC(=O)N2CCN(C)CC2)/C=C/[C@@H]1C (stereo partly drawn)", "tested-target": "Panc 05.04 cells (pancreatic cancer cells; Q699H and K700E mutations in SF3B1)", "assigned-class": 1}
{"compound": "C/C(=C\\C=C\\[C@@H](C)Cn1cc(C2CC2)nn1)[C@H]1OC(=O)C[C@H](O)CC[C@@](C)(O)[C@@H](OC(=O)N2CCN(C3CCCCCC3)CC2)/C=C/[C@@H]1C", "tested-target": "Panc 05.04 cells (pancreatic cancer cells; Q699H and K700E mutations in SF3B1)", "assigned-class": -1}
{"compound": "C/C(=C\\C=C\\[C@@H](C)COC(=O)N1CC[C@@H](C(=O)O)C1)[C@H]1OC(=O)C[C@H](O)CC[C@@](C)(O)[C@@H](OC(=O)N2CCN(C3CCCCCC3)CC2)/C=C/[C@@H]1C", "tested-target": "Panc 05.04 cells (pancreatic cancer cells; Q699H and K700E mutations in SF3B1)", "assigned-class": 1}
{"compound": "C/C(=C\\C=C\\[C@@H](C)COC(=O)N1CCC(=O)C1)[C@H]1OC(=O)C[C@H](O)CC[C@@](C)(O)[C@@H](OC(=O)N2CCN(C3CCCCCC3)CC2)/C=C/[C@@H]1C", "tested-target": "Panc 05.04 cells (pancreatic cancer cells; Q699H and K700E mutations in SF3B1)", "assigned-class": -1}
{"compound": "C/C(=C\\C=C\\[C@@H](C)c1ncccn1)[C@H]1OC(=O)C[C@H](O)CC[C@@](C)(O)[C@@H](OC(=O)N2CCN(C3CCCCCC3)CC2)/C=C/[C@@H]1C", "tested-target": "Panc 05.04 cells (pancreatic cancer cells; Q699H and K700E mutations in SF3B1)", "assigned-class": -1}
{"compound": "C/C(=C\\C=C\\[C@@H](C)c1ccccn1)[C@H]1OC(=O)C[C@H](O)CC[C@@](C)(O)[C@@H](OC(=O)N2CCN(C3CCOCC3)CC2)/C=C/[C@@H]1C", "tested-target": "Panc 05.04 cells (pancreatic cancer cells; Q699H and K700E mutations in SF3B1)", "assigned-class": -1}
{"compound": "COC(=O)CC[C@H](C)/C=C/C=C(\\C)[C@H]1OC(=O)C[C@H](O)CC[C@@](C)(O)[C@@H](OC(=O)N2CCN(C3CCCCCC3)CC2)/C=C/[C@@H]1C", "tested-target": "Panc 05.04 cells (pancreatic cancer cells; Q699H and K700E mutations in SF3B1)", "assigned-class": -1}
